Target: T1, Mouse ST2 (mouse, UniProt P14719 27-332, limits assumed)
T1 construct: also called mouse ST2 protein
T1 sequence (looked up): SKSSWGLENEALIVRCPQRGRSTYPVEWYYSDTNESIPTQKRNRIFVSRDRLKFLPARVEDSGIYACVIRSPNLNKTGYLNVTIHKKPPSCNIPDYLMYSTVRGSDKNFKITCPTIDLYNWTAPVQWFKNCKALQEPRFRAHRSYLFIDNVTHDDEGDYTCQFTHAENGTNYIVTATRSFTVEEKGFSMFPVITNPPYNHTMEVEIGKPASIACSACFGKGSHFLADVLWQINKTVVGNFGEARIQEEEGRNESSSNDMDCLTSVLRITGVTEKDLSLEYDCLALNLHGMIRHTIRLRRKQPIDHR
Assay: SPR (Carterra), antibody immobilized, ST2 analyte, 1:1
reported.endpoint: Kd (nM)
I only need the number, in nM, no unit after it.

INSERT INTO assay_data (binder, meas_value) VALUES
  ('Human ST2 IgG1 Antibody 25 (antibody, V domains shown, IgG1, kappa; also called ST2 Antibody 25) VH: QVQLVQSGAEVKKPGSSVKVSCKASGGTFSNYAISWVRQAPGQGLEWMGWISAYNGNTNYAQKFQGRVTMTRDTSTSTVYMELSSLRSEDTAVYYCARSTNALDYWGQGTLVTVSS VL: DIQMTQSPSSLSASVGDRVTITCRASQGIRSNLDWYQQKPGKAPKLLISIVSNLGSGVPSRFSGSGSGTDFTLTISSLQPEDFATYYCLQHNSNPPTFGGGTKVEIKR', 322),
  ('Human ST2 IgG1 Antibody 19 (antibody, V domains shown, IgG1, kappa; also called ST2 Antibody 19) VH: EVQLLESGGGLVQPGGSLRLSCAASGFSFSHAWMSWVRQAPGKGLEWVSVIHSGGSTFYADSVKGRFTISRDNSKNTLYLQMNSLRAEDTAVYYCARIGKGGGFDYWGQGTLVTVSS VL: DIQMTQSPSSLSASVGDRVTITCRASQDIGSWLAWYQQKPGKAPKLLIYAASSLQSGVPSRFSGSGSGTDFTLTISSLQPEDFATYYCQQSYSTPPTFGQGTKVEIKR', 311);

Next:
Please report the recorded Kd for Human ST2 IgG1 Antibody 103 (antibody, V domains shown, IgG1, kappa; also called ST2 Antibody 103) VH: QVQLVQSGAEVKKPGASVKVSCKASGYTFTSYYMHWVRQAPGQGLEWMGWMNPNSGNTGYAQKFQGRVTMTRDTSTSTVYMELSSLRSEDTAVYYCARETSFDYYYGMDVWGQGTTVTVSS VL: DIQMTQSPSSLSASVGDRVTITCRASQSISNWLAWYQQKPGKAPKLLIYDGSNLGTGVPSRFSGSGSGTDFTLTISSLQPEDFATYYCLQDFTYPLTFGGGTKVEIKR .
211

src = patent US20210403579A1
